Exercise: for every item that follows, state its recorded Ki.
target: Platelet-activating factor receptor (Oryctolagus cuniculus); test: Antagonist activity against platelet activating factor (PAF) receptor in rabbit platelet membranes using [3H]C18-PAF as radioligand
Numbers only, in nM.

Look over these answered cases.
>>> reported("O=C(Nc1cccc(Cl)c1)[C@@H]1CSC(c2cccnc2)N1 (some centres undefined)")
208
>>> reported("O=C(O)CCn1cc(C(=O)[C@@H]2CSC(c3cccnc3)N2)c2ccccc21 (some centres undefined)")
25
>>> reported("CN(C)C(=O)n1cc(C(=O)[C@@H]2CSC(c3cccnc3)N2)c2ccc(OCc3ccccc3)cc21 (some centres undefined)")
1.4

Give Ki for each listed item.
1. NC(=O)Cn1cc(C(=O)[C@@H]2CSC(c3cccnc3)N2)c2ccccc21 (some centres undefined)
2. O=C(c1cn(C(=O)OCc2ccccc2)c2ccccc12)[C@@H]1CSC(c2cccnc2)N1 (some centres undefined)

## Result
1. 5
2. 3

State recorded Ki for all listed compounds.
1. Cc1ccc2c(C(=O)[C@@H]3CSC(c4cccnc4)N3)c[nH]c2c1 (some centres undefined)
2. COc1ccc2c(C(=O)[C@@H]3CSC(c4cccnc4)N3)c[nH]c2c1 (some centres undefined)
3. CNC(=O)Cn1cc(C(=O)[C@@H]2CSC(c3cccnc3)N2)c2ccccc21 (some centres undefined)
4. O=C(c1cn(CC(F)(F)F)c2ccccc12)[C@@H]1CSC(c2cccnc2)N1 (some centres undefined)

## Result
1: 3.4; 2: 9.5; 3: 2.4; 4: 21
